# assay-system: T1, NLpoly11S
# T1 chain: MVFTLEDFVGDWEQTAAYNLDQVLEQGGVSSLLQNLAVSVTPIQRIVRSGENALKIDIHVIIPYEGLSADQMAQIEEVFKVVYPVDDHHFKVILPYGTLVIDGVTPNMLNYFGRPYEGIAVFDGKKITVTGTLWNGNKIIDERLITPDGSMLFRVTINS
# test: luminescence complementation titration, one-site specific binding
# settings: chains peptide; modification not given
reported-metric: Kd (nM)
Express it in nM; write the number only.

QUERY: Consider the binder NVSGWRLFKKISN [NLpep78] and give its measured Kd.
RESULT: 9.56
